Ref: patent US20250382355A1

// reported binning response per item
- test-system: Biotinylated CoV2 Spike ECD PreS-AVI protein (SARS-CoV-2, UniProt P0DTC2 14-1208)
- experiment-notes: Octet binning; competitor Std-A
Give a plain numeric answer without units written out.

Past entries and their recorded results:
1A11 VHH-Fc (Fc fusion) QVQLVESGGGLVQAGGSLRLSCEVSGSIYSINSMGWYRQAPGKQRELVAGIVSDGRINYADSVKGRFTISRAKNTVYLQMNSLKPEDTAVYYCAADRAFVYAGDYDYLGQGTQVTVSS: 0.35
19C10 VHH-Fc (Fc fusion) QVQLVESGGGLVQPGGSLRLSCAASGFTLDLNSIGWFRQAPGKEREGVSCISPSASSTHYADSVKGRFTISRDNAKNTVYLQMNSLKPEDTAVYYCATGTPSYHYCSMYGLEYDDWGQGTQVTVSS: 0.35
3D4 VHH-Fc (Fc fusion) QVQLVESGGGLVQPGGSLRLSCAASGFTLDLNSIGWFRQAPGKEREGVSCISPSGSRMHYADSVKGRFTISRDNAKNTVYLQMNSLKPEDTAVYYCATGSPSYHYCSMYGLEYDSWGQGTQVTVPS: 0.34

Quick one: binning response for 11F8 VHH-Fc (Fc fusion) QVQLVESGGGLVQAGGSLRLSCAASGRTVGYYAVGWFRQAPGKERDFVAAISWSGRNTNYADSVTGRFTIFRDNAKNTVDLQMNSLKPEDTAVYYCAADYWNYGSGSEVPNNYDTWGQGTQVTVSS ?
0.17
